Test system: MCF7
Test: Antiestrogenic activity in human MCF7 cells assessed as inhibition of E2-induced cell proliferation up to 10 uM after 96 hrs by alamar blue assay relative to control
Type: functional
ASSAY ENDPOINT: inhibition (INH)

compound_structure_string=COc1c(O)cc([C@@H]2OC[C@@H]3[C@H]2CO[C@H]3c2cc(O[C@@H]3O[C@H](CO)[C@@H](O)[C@H](O)[C@H]3O)c(OC)c(OC)c2OC)c(OC)c1OC endpoint_value=>90%
compound_structure_string=COc1cc([C@H]2OC[C@H]3[C@@H]2CO[C@@H]3c2cc(OC)c(OC)c(OC)c2O[C@@H]2O[C@H](CO)[C@@H](O)[C@H](O)[C@H]2O)cc(OC)c1OC endpoint_value=>50%
compound_structure_string=COc1cc([C@H]2OC[C@H]3[C@@H]2CO[C@H]3c2cc(OC)c(OC)c(OC)c2O[C@@H]2O[C@H](CO)[C@@H](O)[C@H](O)[C@H]2O)cc2c1OCO2 endpoint_value=>50%

###

Tested on: MCF7
Experiment: Antiestrogenic activity in human MCF7 cells assessed as inhibition of E2-induced cell proliferation up to 10 uM after 96 hrs by alamar blue assay relative to control
Type: functional
ASSAY ENDPOINT: inhibition (INH)

compound_structure_string=COc1cc([C@H]2OC[C@H]3[C@@H]2CO[C@@H]3c2cc(O)c(OC)c(OC)c2O[C@@H]2O[C@H](CO)[C@@H](O)[C@H](O)[C@H]2O)cc2c1OCO2 endpoint_value=>90%
compound_structure_string=COc1cc([C@@H]2OC[C@H]3[C@@H]2CO[C@@H]3c2cc(OC)c(OC)c(OC)c2O[C@@H]2O[C@H](CO)[C@@H](O)[C@H](O)[C@H]2O)c(O)c(OC)c1OC endpoint_value=>90%
compound_structure_string=COc1c(O)cc([C@H]2OC[C@H]3[C@@H]2CO[C@@H]3c2cc3c(c(OC)c2OC)OCO3)c(O[C@@H]2O[C@H](CO)[C@@H](O)[C@H](O)[C@H]2O)c1OC endpoint_value=>90%

###

Test system: T47D
Experiment: Antiestrogenic activity in human T47D cells assessed as inhibition of E2-induced cell proliferation up to 10 uM after 96 hrs by alamar blue assay relative to control
Format: functional
ASSAY ENDPOINT: inhibition (INH)

compound_structure_string=COc1cc([C@H]2OC[C@H]3[C@@H]2CO[C@@H]3c2cc(OC)c3c(c2)OCO3)cc(O[C@@H]2O[C@H](CO)[C@@H](O)[C@H](O)[C@H]2O)c1OC assay_endpoint="inhibition (INH)" endpoint_value=>90%
compound_structure_string=COc1cc([C@H]2OC[C@H]3[C@@H]2CO[C@@H]3c2ccc3c(c2)OCO3)c(O[C@@H]2O[C@H](CO)[C@@H](O)[C@H](O)[C@H]2O)c(OC)c1OC assay_endpoint="inhibition (INH)" endpoint_value=>90%
compound_structure_string=COc1cc([C@@H]2OC[C@@H]3[C@H]2CO[C@H]3c2cc(O[C@@H]3O[C@H](CO)[C@@H](O)[C@H](O)[C@H]3O)c(OC)c(OC)c2OC)c(OC)c(OC)c1OC assay_endpoint="inhibition (INH)" endpoint_value=>50%
compound_structure_string=COc1cc([C@H]2OC[C@H]3[C@@H]2CO[C@@H]3c2cc(OC)c(OC)c(OC)c2O[C@@H]2O[C@H](CO)[C@@H](O)[C@H](O)[C@H]2O)cc(OC)c1OC assay_endpoint="inhibition (INH)" endpoint_value=>90%
